B1: TPR t1 (parent)
chain: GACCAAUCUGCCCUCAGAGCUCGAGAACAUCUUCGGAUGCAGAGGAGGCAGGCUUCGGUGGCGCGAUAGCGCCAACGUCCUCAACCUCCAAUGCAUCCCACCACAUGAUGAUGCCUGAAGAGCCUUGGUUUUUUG

Variants of: B1
Test: polymerase ribozyme fitness, log enrichment relative to wild type (log ratio); higher = more active; in vitro selection for triplet polymerase activity
Each entry gets rule not met if its polymerase ribozyme fitness (log ratio) stays under -4, and rule met if its polymerase ribozyme fitness (log ratio) is -4 or above.

{"columns": ["variant identifier", "group"],
 "data": [
  ["C8A U9G U87A", "rule met"],
  ["C8U A46U C70U G122U", "rule met"],
  ["G19A G77U", "rule met"],
  ["U14G G47C C85G G117A", "rule not met"],
  ["U14G C70G U116G", "rule not met"],
  ["C101A C104A A121C", "rule met"],
  ["C12A C64U U133G", "rule met"],
  ["A29U C73A C98A", "rule not met"],
  ["C53U G71U U81A C123U G135A", "rule met"],
  ["C28G C72A C102G G107A", "rule not met"],
  ["A16G A84U A90C", "rule met"],
  ["C15A C73U", "rule met"],
  ["A46U G93A G120A G122A", "rule met"],
  ["G39U G63A G93U", "rule met"],
  ["U21A U92C U116C A119G", "rule met"],
  ["A26U A43U A121U", "rule not met"],
  ["G48U U59G C72U C94G", "rule met"],
  ["G45U G113U", "rule met"],
  ["G39U A103C C114U A119U G120A U130A", "rule not met"],
  ["G39A A118G A121U", "rule met"],
  ["A50U G77A C97U U106C", "rule met"],
  ["C8G G61A U87G C123A", "rule met"],
  ["A27U G60U G128A", "rule not met"],
  ["C8A G39A C79U", "rule met"],
  ["C15G C22A G52C A119G", "rule not met"],
  ["G42U G44A C56U G61C A68U C85U G110U U116C", "rule not met"],
  ["C40G G120U", "rule met"],
  ["A29U G69U", "rule met"],
  ["C11U A29G C53U", "rule met"],
  ["U78C U116G", "rule met"],
  ["C3U U9C C49A C70U C76A C115A", "rule met"],
  ["G44U C72U", "rule met"],
  ["G63C G113A", "rule met"],
  ["A37C G45A G113U", "rule not met"],
  ["G60U U116C U132A", "rule met"],
  ["G65A A119U", "rule not met"],
  ["G17A G52A A118G", "rule not met"],
  ["U7A U21G G35A G52C C114U", "rule not met"],
  ["C97U C114G", "rule met"],
  ["C22U A37C", "rule not met"]
]}
